Parameter 'readout' = Ki; parameter 'system' = Melanocortin receptor 3 (Homo sapiens, UniProt P41968).
Sequence (P41968 whole entry): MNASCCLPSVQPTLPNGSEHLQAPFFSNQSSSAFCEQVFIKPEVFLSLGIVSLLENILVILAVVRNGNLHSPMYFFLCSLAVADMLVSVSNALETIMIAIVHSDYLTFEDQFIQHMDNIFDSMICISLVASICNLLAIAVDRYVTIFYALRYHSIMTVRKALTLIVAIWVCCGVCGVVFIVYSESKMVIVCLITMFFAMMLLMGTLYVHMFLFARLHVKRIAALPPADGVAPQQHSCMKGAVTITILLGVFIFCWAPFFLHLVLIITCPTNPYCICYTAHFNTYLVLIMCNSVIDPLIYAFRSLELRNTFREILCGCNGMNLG
measurement_label: Ki (µM)

compound: N=C(N)NCCC[C@@H]1NC(=O)[C@@H](Cc2ccc3ccccc3c2)NC(=O)CCC(=O)NCCCC[C@H](C(N)=O)NC(=O)[C@H](Cc2c[nH]c3ccccc23)NC1=O
measurement_label: Ki
measured_result: 5.9
//
compound: N=C(N)NCCC[C@@H]1NC(=O)[C@@H](Cc2ccc3ccccc3c2)NC(=O)[C@H](Cc2c[nH]cn2)NCC(=O)CC[C@@H](C(N)=O)NC(=O)[C@H](Cc2c[nH]c3ccccc23)NC1=O
measurement_label: Ki
measured_result: 2.9
//
compound: CCC1CC(=O)N[C@H](Cc2ccc3ccccc3c2)C(=O)N[C@@H](CCCN=C(N)N)C(=O)N[C@@H](Cc2c[nH]c3ccccc23)C(=O)N[C@H](C(N)=O)CCCCNC1=O (stereo in doubt; 17)
measurement_label: Ki
measured_result: 0.12

###

Target: Melanocortin receptor 5 (Homo sapiens, UniProt P33032)
Sequence (P33032 whole entry): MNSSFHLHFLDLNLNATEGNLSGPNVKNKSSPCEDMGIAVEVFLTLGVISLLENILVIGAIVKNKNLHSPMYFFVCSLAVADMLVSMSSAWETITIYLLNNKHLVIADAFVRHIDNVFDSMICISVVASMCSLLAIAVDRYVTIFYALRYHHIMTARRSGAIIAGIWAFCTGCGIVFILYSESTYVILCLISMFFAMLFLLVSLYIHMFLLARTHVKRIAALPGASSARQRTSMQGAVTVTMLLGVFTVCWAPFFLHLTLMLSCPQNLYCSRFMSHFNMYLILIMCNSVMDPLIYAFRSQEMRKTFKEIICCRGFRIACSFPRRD
pKi: −log10 of the molar value. Peptide text beside a SMILES is read from it.
Recorded pKi by entry

compound: N=C(N)NCCC[C@@H]1NC(=O)[C@@H](Cc2ccc3ccccc3c2)NC(=O)[C@H](Cc2c[nH]cn2)NC(=O)CCC(=O)NCCCC[C@@H](C(N)=O)NC(=O)[C@H](Cc2c[nH]c3ccccc23)NC1=O
pKi: 6.82
--
compound: N=C(N)NCCC[C@H]1NC(=O)[C@@H](Cc2ccc3ccccc3c2)NC(=O)CCC(=O)NCCCC[C@H](C(N)=O)NC(=O)[C@@H](Cc2c[nH]c3ccccc23)NC1=O
pKi: 5.15
--
compound: CC(=O)N[C@H]1CSSC[C@@H](C(=O)N2CCC[C@H]2C(=O)N2CCC[C@H]2C(=O)N[C@@H](CCCCN)C(=O)N[C@@H](CC(=O)O)C(N)=O)NC(=O)CNC(=O)[C@H](Cc2c[nH]c3ccccc23)NC(=O)[C@H](CCCNC(=N)N)NC(=O)[C@@H](Cc2ccc3ccccc3c2)NC(=O)[C@H](Cc2c[nH]cn2)NC(=O)[C@H](CCC(=O)O)NC1=O (HELM PEPTIDE1{[ac].C.E.H.[O=C([C@@H](Cc1ccc2ccccc2c1)N[*:1])[*:2]].R.W.G.C.P.P.K.D.[am]}$PEPTIDE1,PEPTIDE1,2:R3-9:R3$$$V2.0)
pKi: 7.80
--
compound: CC(=O)N[C@H]1CC(=O)NCCCC[C@@H](C(N)=O)NC(=O)[C@H](Cc2c[nH]c3ccccc23)NC(=O)[C@H](CCCNC(=N)N)NC(=O)[C@@H](Cc2ccc3ccccc3c2)NC1=O
pKi: 6.14
--
compound: N=C(N)NCCC[C@@H]1NC(=O)[C@@H](Cc2ccc3ccccc3c2)NCC(=O)CC[C@@H](C(N)=O)NC(=O)[C@H](Cc2c[nH]c3ccccc23)NC1=O
pKi: 5.30
--
compound: N=C(N)NCCC[C@@H]1NC(=O)[C@@H](Cc2ccc3ccccc3c2)NC(=O)[C@@H](N)CC(=O)NCCCC[C@@H](C(N)=O)NC(=O)[C@H](Cc2c[nH]c3ccccc23)NC1=O
pKi: 7.62
--
compound: CC(=O)N[C@H]1CSSC[C@@H](C(N)=O)NC(=O)CNC(=O)[C@H](Cc2c[nH]c3ccccc23)NC(=O)[C@H](CCCN=C(N)N)NC(=O)[C@@H](Cc2ccc3ccccc3c2)NC(=O)[C@H](Cc2c[nH]cn2)NC(=O)[C@H](CCC(=O)O)NC1=O
pKi: 9.41
--
compound: N=C(N)NCCC[C@@H]1NC(=O)[C@@H](Cc2ccc3ccccc3c2)NC(=O)CCC(=O)NC[C@@H](C(N)=O)NC(=O)[C@H](Cc2c[nH]c3ccccc23)NC1=O
pKi: 5.32
--
compound: N=C(N)NCCC[C@@H]1NC(=O)[C@@H](Cc2ccc3ccccc3c2)NC(=O)CCC(=O)NCCC[C@@H](C(N)=O)NC(=O)[C@H](Cc2c[nH]c3ccccc23)NC1=O
pKi: 6.89
--
compound: CC(=O)N[C@H]1CSSC[C@@H](C(=O)N2CCC[C@H]2C(=O)N2CCC[C@H]2C(=O)N[C@@H](CCCCN)C(=O)N[C@@H](CC(=O)O)C(N)=O)NC(=O)CNC(=O)[C@H](Cc2c[nH]c3ccccc23)NC(=O)[C@H](CCCN=C(N)N)NC(=O)[C@@H](Cc2ccc(Cl)c(Cl)c2)NC(=O)[C@H](Cc2c[nH]cn2)NC(=O)[C@H](CCC(=O)O)NC1=O
pKi: 7.66
--
compound: N=C(N)NCCC[C@@H]1NC(=O)[C@H](Cc2ccc3ccccc3c2)NC(=O)CCC(=O)NC2CCC(C(N)=O)N2C(=O)[C@@H](Cc2c[nH]c3ccccc23)NC1=O (stereo partly specified)
pKi: 5.60
--
compound: N=C(N)NCCC[C@@H]1NC(=O)[C@@H](Cc2ccc3ccccc3c2)NC(=O)CCC(=O)NCCCC[C@@H](C(N)=O)NC(=O)[C@H](Cc2c[nH]c3ccccc23)NC1=O
pKi: 6.27
--
compound: N=C(N)NCCC[C@@H]1NC(=O)[C@@H](Cc2ccc3ccccc3c2)NC(=O)CCC(=O)NCCCC[C@H](C(N)=O)NC(=O)[C@@H](Cc2c[nH]c3ccccc23)NC1=O
pKi: 5.31
--
compound: N=C(N)NCCC[C@@H]1NC(=O)[C@@H](Cc2ccc3ccccc3c2)NC(=O)[C@H](Cc2cnc[nH]2)NC(=O)[C@@H](N)CC(=O)NCCCC[C@@H](C(N)=O)NC(=O)[C@H](Cc2c[nH]c3ccccc23)NC1=O
pKi: 7.74
--
compound: N=C(N)NCCC[C@@H]1NC(=O)[C@@H](Cc2ccc3ccccc3c2)NC(=O)[C@H](Cc2c[nH]cn2)NCC(=O)CC[C@@H](C(N)=O)NC(=O)[C@H](Cc2c[nH]c3ccccc23)NC1=O
pKi: 5.62
--
compound: CCC1CC(=O)N[C@H](Cc2ccc3ccccc3c2)C(=O)N[C@@H](CCCN=C(N)N)C(=O)N[C@@H](Cc2c[nH]c3ccccc23)C(=O)N[C@H](C(N)=O)CCCCNC1=O (stereo in doubt; 17)
pKi: 6.85
